Test system: Mycobacterium tuberculosis
Assay Overview: Antimycobacterial activity against Mycobacterium tuberculosis H37Rv ATCC 27294 after 7 days by resazurin assay in presence of Isoleucine, Leucine and Valine
Type: functional
Condition Info: H37Rv ATCC 27294, 168 h
Endpoint: MIC

Recorded results for 2 molecules are shown here.
# Smiles Representation, Tgt, MIC
measured = [
    ("COC(=O)c1ccccc1S(=O)(=O)NC(=O)c1nc2nc(C)cc(C)n2n1", "Mycobacterium tuberculosis", "> 32 µg/mL"),
    ("Cc1cc(C)n2nc(C(=O)NS(=O)(=O)c3ccccc3F)nc2n1", "Mycobacterium tuberculosis", "> 32 µg/mL"),
]

Shift focus to the following entry.
Given the entry `Cc1cc(C)n2nc(C(=O)NS(=O)(=O)c3ccccc3Cl)nc2n1` , report its measured MIC.
> 32 µg/mL
